From: the RNAGym collection of RNA variant scans (doi:10.7554/elife.90254)

B1: LINE1-mini (parent)
chain: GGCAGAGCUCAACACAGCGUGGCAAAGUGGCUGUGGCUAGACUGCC

# Variants of: B1
# Assay Summary: self-cleavage, relative activity (ratio to wild type); higher = more cleavage; in vitro, sequencing; the parent is a self-cleaving ribozyme
Readout Kind: self-cleavage
Numbers only.

Example cases with answers are listed next.
- G27U U32A: 0.07
- U34G A39G: 0.07

Next item in the queue.
-- ask Please look up its self-cleavage: A12G C42U
-- reply 0.07
